Sourced from patent US9593122B2

- System: Monochoria vaginalis
- protocol: Paddy herbicidal activity test
- Assay type: in vivo
- condition description: 5g a.i./10a; irrigated paddy pot, 30 days
- Description: Rice paddy soil was filled into a 1/10000 are pot followed by the addition of suitable amounts of water and chemical fertilizer, kneading, seeding with Echinochloa crus-galli, Monochoria vaginalis and Scirpus juncoides and maintaining in an irrigated state at a water depth of 3 cm. […]
Some compounds, each annotated with its measured Monochoria vaginalis herbicidal efficacy (growth inhibition level).
recorded metric: Monochoria vaginalis herbicidal efficacy (growth inhibition level)

                                    compound         tested_system                    meas_value
 0   N#Cc1cnn(-c2nn3c(c2Br)CCCC3)c1NC/C=C\Cl  Monochoria vaginalis  9 (9: 90% to less than 100%)
 1  O=[N+]([O-])c1cnn(-c2nn3c(c2Cl)CCCC3)c1NC/C=C\Cl  Monochoria vaginalis                 10 (10: 100%)
 2  O=C(N(C/C=C\Cl)c1c([N+](=O)[O-])cnn1-c1nn2c(c1Cl)CCCC2)C(F)(F)F  Monochoria vaginalis   8 (8: 80% to less than 90%)
 3   C=C(Cl)CNc1c(C#N)cnn1-c1nn2c(c1Cl)CCCC2  Monochoria vaginalis  9 (9: 90% to less than 100%)
 4  C=CCN(C(=O)C(F)(F)F)c1c(C#N)cnn1-c1nn2c(c1Br)CCCC2  Monochoria vaginalis  9 (9: 90% to less than 100%)
 5  CC(C)=CCN(C(=O)C(F)(F)F)c1c(C#N)cnn1-c1nn2c(c1Cl)CCCC2  Monochoria vaginalis  9 (9: 90% to less than 100%)
 6  C=C(Cl)CN(C(=O)C(F)(F)F)c1c(C#N)cnn1-c1nn2c(c1Br)CCCC2  Monochoria vaginalis   8 (8: 80% to less than 90%)
 7  N#Cc1cnn(-c2nn3c(c2Br)CCCC3)c1N(C/C=C\Cl)C(=O)C(F)(F)F  Monochoria vaginalis   8 (8: 80% to less than 90%)
 8  C=CCNc1c(C#N)cnn1-c1nn2c(c1Cl)CCCC2 [Control agent 4.59, reference compound]  Monochoria vaginalis   4 (4: 40% to less than 50%)
 9  C=C(C)CNc1c([N+](=O)[O-])cnn1-c1nn2c(c1Cl)CCCC2  Monochoria vaginalis  9 (9: 90% to less than 100%)
10      C=CCCNc1c(C#N)cnn1-c1nn2c(c1Cl)CCCC2  Monochoria vaginalis  9 (9: 90% to less than 100%)
11  CC=CCNc1c([N+](=O)[O-])cnn1-c1nn2c(c1Cl)CCCC2 (mixture of isomers)  Monochoria vaginalis  9 (9: 90% to less than 100%)
12  CC=CCNc1c(C#N)cnn1-c1nn2c(c1Cl)CCCC2 (mixture of isomers)  Monochoria vaginalis                 10 (10: 100%)
